Reported Binding of serum 62 to linear peptides of protein X4 of SARS-CoV Urbani values follow for various sequences
- Test system: antibodies in sera from SARS patients (sera 1a, 1b, 2, 6, 37, 62, London, SARS-yellow, SARS-green)
- Format: binding, human
quantity.name: Binding of serum 62 to linear peptides of protein X4 of SARS-CoV Urbani

INSERT INTO measurements (biopolymer_sequence, reported_value) VALUES
  ('IILFLTLIVFTSCEL', 0.8),
  ('LIVFTSCELYHYQEC', 1.0),
  ('QQELYSPLFLIVAAL', 0.6),
  ('YSPLFLIVAALVFLI', 0.7),
  ('LFLTLIVFTSCELYH', 0.7),
  ('ALVFLILCFTIKRKT', 0.8),
  ('THFAFACADGTRHTY', 0.7),
  ('TSTHFAFACADGTRH', 0.8),
  ('LFIRQEEVQQELYSP', 0.8),
  ('IVFTSCELYHYQECV', 1.0),
  ('NKFALTCTSTHFAFA', 0.7),
  ('TYQLRARSVSPKLFI', 0.9);

* * *

- System: antibodies in sera from SARS patients (sera 1a, 1b, 2, 6, 37, 62, London, SARS-yellow, SARS-green)
- Type: binding, human
Reported Binding of serum London to looped/cyclic peptides of protein X4 of SARS-CoV Urbani values follow for various sequences
quantity.name: Binding of serum London to looped/cyclic peptides of protein X4 of SARS-CoV Urbani

INSERT INTO assay_data (biopolymer_sequence, reported_value) VALUES
  ('ACADGTRHTYQLRAR', 0.3),
  ('VQQELYSPLFLIVAA', 0.3),
  ('CADGTRHTYQLRARS', 0.3),
  ('TYQLRARSVSPKLFI', 1.4),
  ('RARSVSPKLFIRQEE', 0.5),
  ('EVQQELYSPLFLIVA', 0.3),
  ('MKIILFLTLIVFTSC', 0.2),
  ('LFLTLIVFTSCELYH', 0.3),
  ('KFALTCTSTHFAFAC', 0.4);

* * *

- Test system: antibodies in sera from SARS patients (sera 1a, 1b, 2, 6, 37, 62, London, SARS-yellow, SARS-green)
- Format: binding, human
- Set-up: unit not given here
Reported Binding of serum 1b to looped/cyclic peptides of protein N of SARS-CoV Urbani values follow for various sequences
quantity.name: Binding of serum 1b to looped/cyclic peptides of protein N of SARS-CoV Urbani

INSERT INTO results (biopolymer_sequence, reported_value) VALUES
  ('QGVPINTNSGPDDQI', 0.4),
  ('RRATRRVRGGDGKMK', 0.1),
  ('HIDAYKTFPPTEPKK', 0.1),
  ('YFYYLGTGPEASLPY', 0.3),
  ('ANKEGIVWVATEGAL', 0.3),
  ('GSSRGNSPARMASGG', 0.3),
  ('YAEGSRGGSQASSRS', 0.2),
  ('GGPTDSTDNNQNGGR', 0.1),
  ('MKELSPRWYFYYLGT', 0.2),
  ('INTNSGPDDQIGYYR', 0.3),
  ('AAEASKKPRQKRTAT', 0.1),
  ('EAQPLPQRQKKQPTV', 0.1),
  ('SWFTALTQHGKEELR', 0.1),
  ('GKMKELSPRWYFYYL', 0.2);

# credit: patent US20070128217A1
